Recorded values, source patent US20250129086A1.

Test system: H1975 (EGFR L858R/T790M double mutation)
assay-text: Cell antiproliferative assay (CTG, 72 h), H1975
Format: cell-based, human
measurement-conditions: Homo sapiens, NCI-H1975, 72 h, Table 2, H1975 cells
Method: Test Example 1 Cell Antiproliferative Assay H1975: with EGFR: L858R/T790M double mutation; PC-9 with EGFR exon 19 deletion, HCC827 with exon 19 deletion mutation. CellCounting-Lite2.0, Trypsin EDTA, 37° C. […] • (A)96-well plates were incubated in an incubator for 72 h. The effect of the compounds was observed under an inverted microscope. • (B)25 μl of CTG solution was added to each well, the plate was put on shaker for 10 minutes and the […] of each well was read. […]
Assignment: determine reported IC50 for the given compounds.

QUERY: IC50 lookup needed for COc1cc(N2CCN(C(=O)CN3CCC(c4ccc(NC5CCC(=O)NC5=O)cc4)CC3)CC2)ccc1Nc1ncc(C(F)(F)F)c(Nc2ccccc2)n1 (centres unmarked) , thanks.
RESULT: 10 to 100 nM

QUERY: IC50 lookup needed for COc1cc(N2CCN(C(=O)CN3CCC(c4ccc(NC5CCC(=O)NC5=O)cc4)CC3)CC2)ccc1Nc1ncc(Br)c(Nc2ccccc2C(=O)NC2CCCC2)n1 (centres unmarked) , thanks.
RESULT: 10 to 100 nM

QUERY: IC50 lookup needed for COc1cc(N2CCN(C(=O)CN3CCC(c4ccc(NC5CCC(=O)NC5=O)cc4)CC3)CC2)c(C)cc1Nc1ncc(Cl)c(Nc2ccccc2C(=O)N(C)C)n1 (centres unmarked) , thanks.
RESULT: ≤ 10 nM

QUERY: IC50 lookup needed for C=CC(=O)Nc1cc(Nc2ncc(C(F)(F)F)c(Nc3ccccc3)n2)c(OC)cc1N(C)CCN(C)C(=O)CN1CCC(c2ccc(NC3CCC(=O)NC3=O)cc2)CC1 (centres unmarked) , thanks.
RESULT: 100 to 1000 nM

QUERY: IC50 lookup needed for COc1cc(N2CCN(C(=O)CN3CCC(c4ccc(NC5CCC(=O)NC5=O)cc4)CC3)CC2)ccc1Nc1ncc(Cl)c(Nc2ccccc2C(=O)NC(C)C)n1 (centres unmarked) , thanks.
RESULT: 10 to 100 nM

---

Tested on: H1975 (EGFR L858R/T790M double mutation)
assay-text: Cell antiproliferative assay (CTG, 72 h), H1975
Assay type: cell-based, human
measurement-conditions: Homo sapiens, NCI-H1975, 72 h, Table 2, H1975 cells
Assignment: determine reported IC50 for the given molecules.

QUERY: IC50 lookup needed for COc1cc(N2CC3(CN(C(=O)CN4CCC(c5ccc(NC6CCC(=O)NC6=O)cc5)CC4)C3)C2)ccc1Nc1ncc(Cl)c(Nc2ccccc2C(C)=O)n1 (stereo not drawn) , thanks.
RESULT: 10 to 100 nM

QUERY: IC50 lookup needed for COc1cc(N2CCN(CCN3CCC(c4ccc(NC5CCC(=O)NC5=O)cc4)CC3)CC2)ccc1Nc1ncc(Cl)c(Nc2ccccc2C(C)=O)n1 (stereo not drawn) , thanks.
RESULT: 10 to 100 nM

QUERY: IC50 lookup needed for COc1cc(N2CC[C@H](NC(=O)CN3CCC(c4ccc(NC5CCC(=O)NC5=O)cc4)CC3)C2)ccc1Nc1ncc(Cl)c(Nc2ccccc2C(C)=O)n1 (stereo partly drawn) , thanks.
RESULT: 100 to 1000 nM

QUERY: IC50 lookup needed for COc1cc(N2CCN(C(=O)CC3(F)CCN(c4ccc(NC5CCC(=O)NC5=O)cc4)CC3)CC2)ccc1Nc1ncc(Cl)c(Nc2ccccc2C(C)=O)n1 (stereo not drawn) , thanks.
RESULT: 10 to 100 nM

QUERY: IC50 lookup needed for COc1cc(N2CCN(C(=O)CN3CCC(c4ccc(NC5CCC(=O)NC5=O)cc4)CC3)CC2)ccc1Nc1ncc(Cl)c(Nc2ccccc2N(C)S(C)(=O)=O)n1 (stereo not drawn) , thanks.
RESULT: ≤ 10 nM

QUERY: IC50 lookup needed for COc1cc(N2CC3CC(C2)N3C(=O)CN2CCC(c3ccc(NC4CCC(=O)NC4=O)cc3)CC2)ccc1Nc1ncc(Cl)c(Nc2ccccc2C(C)=O)n1 (stereo not drawn) , thanks.
RESULT: 100 to 1000 nM
